Listed compounds paired with reported IC50
target: LMPTP-A (Low Molecular Weight Protein Tyrosine Phosphatase-A) enzyme (Homo sapiens (Human), UniProt P24666); assay: LMPTP primary screening / LMPTP (OMFP) enzyme inhibition assay, fluorescence intensity; format: biochemical; conditions: LMPTP-A, OMFP substrate, method of Example 2; read-out: IC50
Sequence (P24666 whole entry): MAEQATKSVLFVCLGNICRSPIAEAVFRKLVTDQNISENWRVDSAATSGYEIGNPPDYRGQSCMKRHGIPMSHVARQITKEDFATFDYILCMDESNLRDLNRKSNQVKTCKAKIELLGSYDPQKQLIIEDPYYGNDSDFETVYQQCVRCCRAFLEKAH

Examples with answers:
| compound | recorded.endpoint | measurement |
| --- | --- | --- |
| CC(=O)Nc1ccc(-c2cc(NCCCN3CCCCC3)c3ccccc3n2)cc1C(F)(F)F | IC50 | 801 to 5000 nM |
| NC(=O)c1ccc(-c2cc(NCc3ccc(CN4CCCCC4)cc3)c3ccccc3n2)cc1 | IC50 | > 5000 nM |
| COc1ccc(-c2cc(NCCc3ccccc3)c3ccccc3n2)cc1 | IC50 | 801 to 5000 nM |
| Fc1cc(Cl)ccc1-c1cc(NCCCN2CCCCC2)c2ccccc2n1 | IC50 | 200 to 800 nM |
| FC(F)(F)c1ccc(C(F)(F)F)c(-c2cc(Nc3cccc(CC4CCN(Cc5ccccc5)CC4)c3)c3ccccc3n2)c1 | IC50 | > 5000 nM |

Qu. Form field: reported IC50 of Cc1cccc(-c2cc(NCCCN3CCCCC3)c3ccccc3n2)c1
Ans. 801 to 5000 nM

Qu. Try this compound next: CS(=O)(=O)c1cccc(-c2cc(NCCCN3CCCCC3)c3ccccc3n2)c1
Ans. 801 to 5000 nM

Qu. Please answer likewise for O=[N+]([O-])c1ccc(C(F)(F)F)c(-c2cc(NCCCN3CCCCC3)c3ccccc3n2)c1
Ans. 801 to 5000 nM

Qu. And the next one, COc1cccc(F)c1-c1cc(NCCCN2CCCCC2)c2ccccc2n1 ?
Ans. 801 to 5000 nM

Qu. Try this compound too: COc1ccc(-c2cc(Nc3cccc(CC4CCN(C)CC4)c3)c3ccccc3n2)cc1
Ans. 200 to 800 nM
